test-name: qHTS Assay for Lipid Storage Modulators (AID 1519)
protocol-conditions: Drosophila S3 cells, BODIPY lipid droplet/cell ratio, laser cytometry; measured here: lipid channel max response; cells loaded with oleic acid
Inconclusive results are not listed.
Mark Fulfilled only for max response values smaller than 10%; exact matches and larger values are Not fulfilled.

{"columns": ["compound", "cat"],
 "data": [
  ["CC(C)NC[C@H](O)COc1cccc2ccccc12", "Not fulfilled"],
  ["CC(N)=NCCCC[C@@H](N)C(=O)O", "Fulfilled"],
  ["NC(Cc1cccc(-c2ccccc2CP(=O)(O)O)c1)C(=O)O (stereo not drawn)", "Not fulfilled"],
  ["COCc1nc2c([nH]1)c(=O)n(C)c(=O)n2CC(C)C", "Fulfilled"],
  ["CCCn1c(=O)c2[nH]c(C3CCCC3)nc2n(CCC)c1=O", "Not fulfilled"],
  ["O=C(O)c1cccnc1C(=O)O", "Not fulfilled"],
  ["CN1CCc2cc(Cl)c(O)cc2[C@@H](c2ccccc2)C1", "Not fulfilled"],
  ["CC(=O)/C(C)=N/O", "Fulfilled"],
  ["O=C(O)Cc1ccc(O)c(O)c1", "Fulfilled"],
  ["CNc1cc(NS(=O)(=O)c2ccc(N)cc2)nc(NC)n1", "Fulfilled"],
  ["CCC(=O)N1CCN(C(=O)c2ccccc2)CC1", "Fulfilled"],
  ["COc1cc(CNC(=O)CCCCCCC(C)C)ccc1O", "Not fulfilled"],
  ["N[C@@H](Cc1c[nH]c2ccccc12)C(=O)O", "Not fulfilled"]
]}

###

tested-system: N-terminal Xaa-Pro-Lys N-methyltransferase 1 (Homo sapiens) (UniProt Q9BV86)
Sequence (Q9BV86 whole entry, looked up): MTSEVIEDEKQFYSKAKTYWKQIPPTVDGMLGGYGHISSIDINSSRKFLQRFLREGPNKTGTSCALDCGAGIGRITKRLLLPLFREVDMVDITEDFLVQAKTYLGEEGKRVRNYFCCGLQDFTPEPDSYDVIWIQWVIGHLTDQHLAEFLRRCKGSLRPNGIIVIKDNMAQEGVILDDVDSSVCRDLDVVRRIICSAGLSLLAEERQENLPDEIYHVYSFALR
test-name: qHTS Assay for Inhibitors of N-terminal methyltransferase 1 (NTMT1): LOPAC validation of the NTMT1 SAHH-coupled ThioGlo3 Assay (AID 1347143);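 also: SAH from peptide methylation measured as thiol fluorescence via SAHH coupling and ThioGlo3; nearly all actives have a fitted effect of over 70% in size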
protocol-conditions: recombinant NTMT1, SAHH-coupled ThioGlo3 fluorescence; series mostly up to 114 µM
Inconclusive results are not listed. Activity calls are given as the source filed them. Calls come from the whole dose curve; as a rule, active = well fitted inhibition curve with a large enough effect; inconclusive = small, poorly fitted or top-dose-only effect; inactive = no such curve, though single readings can be large or run the other way.
Outcomes: True (active), False (inactive)

{"columns": ["compound", "cat"],
 "data": [
  ["O=c1oc(Cl)c(Cl)c2ccccc12", "True"],
  ["CCCn1c(=O)c2c(ncn2C)n(CCC)c1=O", "False"],
  ["Oc1cc2c(cc1O)C(c1ccccc1)CNCC2 (stereo not given)", "True"],
  ["CN[C@H](CC(=O)O)C(=O)O", "False"],
  ["COc1cc(C(O)CO)ccc1O (stereo not given)", "False"],
  ["C[C@H](NC(=O)/C(C#N)=C/c1ccc(O)c(O)c1)c1ccccc1", "True"],
  ["C=C1C(=O)O[C@@H]2[C@H]3O[C@]3(C)CCC=C(C)CC[C@@H]12", "False"],
  ["CCOC(=O)C12CC1/C(=N/O)c1ccccc1O2 (stereo not given)", "False"],
  ["N[C@@H](Cc1ccc(F)cc1)C(=O)O", "False"],
  ["NCCS(=O)O", "False"],
  ["O=C(O)/C(=C/c1c(C(=O)O)[nH]c2cc(Cl)cc(Cl)c12)c1ccccc1", "False"],
  ["CC(C)NCC(O)COc1ccc(CC(N)=O)cc1 (stereo not given)", "False"],
  ["O=c1cc(-c2ccccc2)[nH]c2nc(Cl)ccc12", "True"],
  ["CC(=O)O[C@H]1Cc2ccccc2N(C(N)=O)c2ccccc21", "False"],
  ["CNC(=O)c1cc2c(cn1)[nH]c1ccccc12", "True"],
  ["CNc1ncnc2c1ncn2[C@H]1C[C@H](OP(=O)(O)O)[C@@H](COP(=O)(O)O)O1", "False"],
  ["CC(C)(CO)Cc1cc(C(C)(C)C)c(O)c(C(C)(C)C)c1", "False"],
  ["NOCC(=O)O", "False"],
  ["O=c1[nH]c(=O)c2nc3ccccc3nc2[nH]1", "True"],
  ["CC1=C(C(=O)O)N2C(=O)[C@@H](NC(=O)C(N)C3=CCC=CC3)[C@H]2SC1 (stereo not given in full)", "False"],
  ["O=c1[nH]c2cc(Cl)ccc2c(O)c1-c1ccc(Oc2ccccc2)cc1", "False"],
  ["CN(C)CCC(c1ccc(Br)cc1)c1ccccn1 (stereo not given)", "False"],
  ["Cn1cc(C(F)(F)F)nc1-c1ccc(OCC(O)CNCCOc2ccc(O)c(C(N)=O)c2)cc1 (stereo not given)", "True"],
  ["C[C@@H](NCCc1ccc(O)cc1)[C@@H](O)c1ccc(O)cc1", "False"],
  ["COc1ccccc1N1CCN(CCCCNC(=O)c2ccc3ccccc3c2)CC1", "False"]
]}

Hey, just so you know, these numbers are from PubChem BioAssay (NCATS).
